# test details: Inhibition of protein tyrosine kinase in HUVEC lysates after 2 hrs
# Format: cell-based, Homo sapiens
IC50 for assorted molecules
Report the figure in µM without appending any unit label.

Worked examples, 2 molecules total:
# molecule, obs value
records = [
    ("CC(=O)Cc1cc(=O)c2c(O)c3c(O)cc(O)c(-c4c(O)cc(O)c5c(O)c6c(=O)cc(C)oc6cc45)c3cc2o1", 18),
    ("CC(=O)Cc1cc(=O)c2c(O)c3c(O)cc(O)c(-c4c(O)cc(O)c5c(O)c6c(=O)cc(CC(C)=O)oc6cc45)c3cc2o1", 42.1),
]

Prompt: Need IC50 of CC(=O)Cc1cc(=O)c2c(O)c3c(O)cc(O)c(-c4c(O)cc(O)c5c(O)c6c(=O)cc(CC(C)O)oc6cc45)c3cc2o1 (stereo not drawn) , thanks.
Response: 58.7
